Tested on: VEGF-121 (Homo sapiens), P15692-9
Sequence: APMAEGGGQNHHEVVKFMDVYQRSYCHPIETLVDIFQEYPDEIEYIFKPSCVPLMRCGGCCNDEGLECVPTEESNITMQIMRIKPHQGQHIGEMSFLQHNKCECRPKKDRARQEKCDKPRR
Experiment: filter
Details: NapdU at P; 2'-OMe 14
recorded-metric: Kd (nM)
Field: numeric (nM). Do not append units.

Sure, the documented Kd for CCGTTCAAGTGCTTGTAGGATTTAAATGG [4867-31_158] is 1.7

----------
Tested on: VEGF-165 (Homo sapiens), P15692-4
Sequence: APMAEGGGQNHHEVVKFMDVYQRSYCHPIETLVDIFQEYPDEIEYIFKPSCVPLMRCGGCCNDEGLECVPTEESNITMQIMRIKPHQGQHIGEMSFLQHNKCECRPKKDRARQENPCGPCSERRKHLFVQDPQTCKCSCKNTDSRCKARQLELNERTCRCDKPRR
Assay: filter
Conditions: Bn-dU, MBn-dU, Nap-dU, 2'-OMe, C3; 6 Heg between parts
recorded-metric: pKd
// scale note: pKd = -log10(conc_M); give the bare number

Sure, the documented pKd for TTACGTTACCGCGTTTATAGCGCCGTTCAAGTGCTTGTAGGATTTAAATGG [4149-8_417] is 10.19

----------
Tested on: VEGF-121 (Homo sapiens), P15692-9
Sequence: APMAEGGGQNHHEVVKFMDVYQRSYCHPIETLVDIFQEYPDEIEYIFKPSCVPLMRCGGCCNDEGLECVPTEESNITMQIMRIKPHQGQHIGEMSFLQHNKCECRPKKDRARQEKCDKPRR
Assay: filter
Settings: P=Nap-dU; C3 spacer at 8
recorded-metric: Kd (nM)
Field: numeric (nM). Do not append units.

Sure, the documented Kd for CCCTCCACAGCCGTTCAAGTGCTTGTAGGATTTAAATGGAATTGGAGGA [4867-15_31] is 0.095

Sure, the documented Kd for AGCCGTTAAGTGCTTGTAGGATTTAAATGGA [4867-31_97] is 7.3

----------
Test system: VEGF-121 (Homo sapiens), P15692-9
Sequence: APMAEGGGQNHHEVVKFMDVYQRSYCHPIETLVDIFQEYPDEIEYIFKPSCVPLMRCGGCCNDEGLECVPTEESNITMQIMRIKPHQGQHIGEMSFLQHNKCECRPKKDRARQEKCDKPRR
Assay: filter
Conditions: P=Nap-dU; C3 spacer at 1
recorded-metric: Kd (pM)
Field: numeric (pM). Do not append units.

Tested on VEGF-121 (Homo sapiens), P15692-9, the item CCTCCATCAGCCGTTCAAGTGCTTGTAGGATTTAAATGGAATTGGAGGA [4867-15_24] showed Kd equal to 110

----------
Molecular target: PDGF-BB (platelet-derived growth factor BB) (Homo sapiens)
Assay: filter
Settings: as 4149-8_379; 2'-OMe 15
recorded-metric: pKd
// scale note: pKd = -log10(conc_M); give the bare number

Sure, the documented pKd for TTACGTTACCGCGTTTATAGCG [4149-8_418] is 9.68

----------
System: VEGF-121 (Homo sapiens), P15692-9
Sequence: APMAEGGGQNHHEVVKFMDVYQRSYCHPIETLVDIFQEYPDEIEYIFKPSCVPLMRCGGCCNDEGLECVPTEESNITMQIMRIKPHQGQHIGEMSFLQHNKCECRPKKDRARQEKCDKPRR
Test: filter
Conditions: as 4867-31_192; 2'-OMe 1; PS 26; printed 2.1-11
recorded-metric: Kd (nM)
Field: numeric (nM). Do not append units.

Tested on VEGF-121 (Homo sapiens), P15692-9, the item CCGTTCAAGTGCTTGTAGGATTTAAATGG [4867-31_476] showed Kd equal to 0.021
